Test system: EPHHL
PROCEDURE_DETAILS: Pre-emergence biological efficacy
Type: in vivo
CONDITION_SUMMARY: Euphorbia heterophylla, 312 h, evaluated after 13 days, read-out: damage to plant (100=total damage to plant; 0=no damage to plant)
EXPERIMENTAL_READOUT: pest or weed control at 250 g/ha (%)
Response body: numeric value in %, unit text excluded.

Look over these answered cases.
CCOC(=O)C1(C)CC(c2cc(-c3cnc(F)c(Cl)c3)c(F)cc2Cl)=NO1 (centres unmarked) [Compound 1-403] ... 20
CCOC(=O)C1(C)CC(c2cc(-c3ncc(C(F)(F)F)cc3Br)c(F)cc2Cl)=NO1 (centres unmarked) [Compound 1-571] ... 0
CCOC(=O)C1(C)CC(c2cc(-c3ncc(F)cc3Cl)c(F)cc2Cl)=NO1 (centres unmarked) [Compound 1-331] ... 100
CCOC(=O)C1(C)CC(c2cc(-c3cccnc3)c(F)cc2Cl)=NO1 (centres unmarked) [Compound 1-247] ... 0
CCOC(=O)C1(C)CC(c2cc(-c3ncc(C(F)F)cc3Cl)c(F)cc2Cl)=NO1 (centres unmarked) [Compound 1-583] ... 100
CCOC(=O)C1(C)CC(c2cc(-c3ncc(S(C)(=O)=O)cc3Cl)c(F)cc2Cl)=NO1 (centres unmarked) [Compound 1-643] ... 100
CCOC(=O)C1(C)CC(c2cc(-c3cc(C(F)(F)F)ccn3)c(F)cc2Cl)=NO1 (centres unmarked) [Compound 1-319] ... 20

Turning to the following compound.
Please report the recorded pest or weed control at 250 g/ha for CCOC(=O)C1(C)CC(c2cc(-c3ccc(Cl)nn3)c(F)cc2Cl)=NO1 (centres unmarked) [Compound 1-679] .
0

====

Tested on: ECHCG
PROCEDURE_DETAILS: Post-emergence biological efficacy
Type: in vivo
CONDITION_SUMMARY: Echinochloa crus-galli, 312 h, evaluated after 13 days, read-out: damage to plant (100=total damage to plant; 0=no damage to plant)
Lab note: compare pest or weed control at 250 g/ha with 80%, writing 1.0 if less and 0.0 if equal or more.

CCOC(=O)C1(C)CC(c2cc(-c3ncc([N+](=O)[O-])cc3Cl)c(F)cc2Cl)=NO1 (centres unmarked) ... 1.0
CCOC(=O)C1(C)CC(c2cc(-c3ncc(C(F)(F)F)cc3Cl)c(F)cc2Cl)=NO1 (centres unmarked) ... 0.0

Below 80% on pest or weed control at 250 g/ha? Entry CCOC(=O)C1(C)CC(c2cc(-c3cccc(C(F)(F)F)n3)c(F)cc2Cl)=NO1 (centres unmarked)
1.0

Check if pest or weed control at 250 g/ha falls below 80% for CCOC(=O)C1(C)CC(c2cc(-c3ccnc(F)c3)c(F)cc2Cl)=NO1 (centres unmarked) .
1.0

Bench note: check whether CCOC(=O)C1(C)CC(c2cc(-c3ncc(S(C)(=O)=O)cc3Cl)c(F)cc2Cl)=NO1 (centres unmarked) shows pest or weed control at 250 g/ha below 80%
0.0

Criterion: pest or weed control at 250 g/ha strictly below 80%. Is it met by CCOC(=O)C1(C)CC(c2cc(-c3cc(Cl)nc(OC)c3)c(F)cc2Cl)=NO1 (centres unmarked) ?
1.0

Consider CCOC(=O)C1(C)CC(c2cc(-c3nc(C)cnc3C)c(F)cc2Cl)=NO1 (centres unmarked) . Does its pest or weed control at 250 g/ha lie strictly below 80%?
1.0

====

Quick reference: pest or weed control at 250 g/ha of the listed items.
System: EPHHL
PROCEDURE_DETAILS: Pre-emergence biological efficacy
Format: in vivo
CONDITION_SUMMARY: Euphorbia heterophylla, 312 h, evaluated after 13 days, read-out: damage to plant (100=total damage to plant; 0=no damage to plant)
# number only, unit % dropped from output

Solved cases below.
CCOC(=O)C1(C)CC(c2cc(-c3ncc(C(C)=O)cc3Cl)c(F)cc2Cl)=NO1 (centres unmarked) ... 0
CCOC(=O)C1(C)CC(c2cc(-c3ccnc(F)c3)c(F)cc2Cl)=NO1 (centres unmarked) ... 0
CCOC(=O)C1(C)CC(c2cc(-c3nccnc3C)c(F)cc2Cl)=NO1 (centres unmarked) ... 0

Please give the measured pest or weed control at 250 g/ha for this compound: CCOC(=O)C1(C)CC(c2cc(-c3ccnc(Cl)c3Cl)c(F)cc2Cl)=NO1 (centres unmarked)
0

Entry under review: CCOC(=O)C1(C)CC(c2cc(-c3ccncc3)c(F)cc2Cl)=NO1 (centres unmarked) . Reported pest or weed control at 250 g/ha?
0

Name the reported pest or weed control at 250 g/ha value associated with the compound CCOC(=O)C1(C)CC(c2cc(-c3c(Cl)cc(C(F)(F)F)c[n+]3[O-])ccc2Cl)=NO1 (centres unmarked)
90

Which pest or weed control at 250 g/ha value is on record for CCOC(=O)C1(C)CC(c2cc(-c3ccc(C)nc3F)c(F)cc2Cl)=NO1 (centres unmarked) ?
20

Please look up its pest or weed control at 250 g/ha: CCOC(=O)C1(C)CC(c2cc(-c3ncc(C(F)(F)F)nc3Cl)c(F)cc2Cl)=NO1 (centres unmarked)
100

Please report the recorded pest or weed control at 250 g/ha for CCOC(=O)C1(C)CC(c2cc(-c3cc(F)cnc3Cl)c(F)cc2Cl)=NO1 (centres unmarked) .
40

What measured pest or weed control at 250 g/ha goes with CCOC(=O)C1(C)CC(c2cc(-c3cc(C(F)(F)F)cnc3F)c(F)cc2Cl)=NO1 (centres unmarked) ?
50

Please report the recorded pest or weed control at 250 g/ha for CCOC(=O)C1(C)CC(c2cc(-c3ncc(Br)cc3Cl)c(F)cc2Cl)=NO1 (centres unmarked) .
50

Look up pest or weed control at 250 g/ha for this compound: CCOC(=O)C1(C)CC(c2cc(-c3ncc(C(F)(F)F)cc3F)c(F)cc2Cl)=NO1 (centres unmarked)
100

Entry CCOC(=O)C1(C)CC(c2cc(-c3ccc(C(F)(F)F)cn3)c(F)cc2Cl)=NO1 (centres unmarked) has what pest or weed control at 250 g/ha?
60

Entry CCOC(=O)C1(C)CC(c2cc(-c3ncc(C(F)(F)F)cc3Cl)ccc2Cl)=NO1 (centres unmarked) has what pest or weed control at 250 g/ha?
100

Entry under review: CCOC(=O)C1(C)CC(c2cc(-c3cnc4ccccc4c3)c(F)cc2Cl)=NO1 (centres unmarked) . Reported pest or weed control at 250 g/ha?
10

====

Tested on: IPOHE
PROCEDURE_DETAILS: Post-emergence biological efficacy
Type: in vivo
CONDITION_SUMMARY: Ipomoea hederacea, 312 h, evaluated after 13 days, read-out: damage to plant (100=total damage to plant; 0=no damage to plant)
Label rule met when pest or weed control at 250 g/ha is strictly below 70%; at or above that, label rule not met.

Check out these entries, answers already filled in.
CCOC(=O)C1(C)CC(c2cc(-c3ncc(F)cc3Cl)c(F)cc2Cl)=NO1 (centres unmarked) ... rule not met
CCOC(=O)C1(C)CC(c2cc(-c3cnc(F)c(F)c3)c(F)cc2Cl)=NO1 (centres unmarked) ... rule met
CCOC(=O)C1(C)CC(c2cc(-c3cnc4ccccc4c3)c(F)cc2Cl)=NO1 (centres unmarked) ... rule met
CCOC(=O)C1(C)CC(c2cc(-c3ncc(C(F)(F)F)cc3F)c(F)cc2Cl)=NO1 (centres unmarked) ... rule not met
CCOC(=O)C1(C)CC(c2cc(-c3cc(Cl)nc(OC)c3)c(F)cc2Cl)=NO1 (centres unmarked) ... rule met

For CC1(C(=O)O)CC(c2cc(-c3ncc(C(F)(F)F)cc3Cl)c(F)cc2Cl)=NO1 (centres unmarked) , is the recorded pest or weed control at 250 g/ha below the cut-off of 70%?
rule not met

Does the reported pest or weed control at 250 g/ha of CCOC(=O)C1(C)CC(c2cc(-c3cnc(Cl)c(Cl)c3)c(F)cc2Cl)=NO1 (centres unmarked) stay below 70%?
rule not met

Problem: For the compound CCOC(=O)C1(C)CC(c2cc(-c3ccccc3Cl)c(F)cc2Cl)=NO1 (centres unmarked) , is pest or weed control at 250 g/ha under 70%?
rule not met

pest or weed control at 250 g/ha strictly < 70% for this compound? CCOC(=O)C1(C)CC(c2cc(-c3c(Cl)cc(C(F)(F)F)c[n+]3[O-])c(F)cc2Cl)=NO1 (centres unmarked)
rule not met

In the record for CCOC(=O)C1(C)CC(c2cc(-c3cncc(OC)c3)c(F)cc2Cl)=NO1 (centres unmarked) , is pest or weed control at 250 g/ha less than 70%?
rule not met

State whether 70% exceeds pest or weed control at 250 g/ha recorded for CCOC(=O)C1(C)CC(c2cc(-c3cc(C(F)(F)F)ccn3)c(F)cc2Cl)=NO1 (centres unmarked) .
rule not met

Just wondering, is pest or weed control at 250 g/ha of CCOC(=O)C1(C)CC(c2cc(-c3cc(C)cnc3F)c(F)cc2Cl)=NO1 (centres unmarked) below 70%?
rule not met
